// provenance: PubChem BioAssay

Test system: XIP peptide (Xip251-270)
experiment-summary: small-molecule binders of XIP peptide, primary screen, biochemical, small-molecule microarray, fluorescence 635/667 nm, 0.5 µg/mL protein (AID 1183)
protocol-conditions: small-molecule microarray binding, fluorescence 635 nm; higher = more signal
parameter: composite z-score
Write the value as a bare number.

# example entries with known answers
Noted for CCOC(=O)C1=CCC(c2cccn2C(=O)OC(C)(C)C)N(S(=O)(=O)c2ccc(C)cc2)C1 (centres undefined) : its composite z-score reads 0.732

For CCCCC(=C=CC[C@H](O)c1ccccc1OCCO)CCO the compound record lists composite z-score as -0.0255

Given item N#Cc1ccc(NN2C(C(O)c3ccc(B(O)O)cc3)C=CC3CN(c4ccccc4)C(=O)C32)cc1 (centres undefined) , the value recorded as its composite z-score is 0.658

# next compound below
// sample COc1c(C)cc(-c2nc(-c3ccccc3)c3c(c2C)CO[Si]3(C(C)C)C(C)C)cc1C , its composite z-score was -0.487
